System: B16 melanoma cells
Assay overview: Caspase-3 activity assay (EnzChek Caspase-3 Assay Kit), caspase-3 induction in tumor cells; further: test concentration or dose not given here
Format: cell-based, mouse
Condition: relative to compound of Formula (III)
The entries below come with measured Caspase-3 induction, Normalized to Formula (III) (%) values attached.
The answer is to be given in %; state only the numeric part.

Guide cases for Caspase-3 induction, Normalized to Formula (III) (%), answers given:
| Compound | Assay value |
| --- | --- |
| COCCCNC(=O)c1cc(OC)c(OC)cc1Br | −85.9622 |
| CCN(C)C(=O)c1ccc2nc(C3CCCCC3)oc2c1 | 1.1915 |
| COCCCNC(=O)c1cccc2nc(N(C)C)oc12 | −39.581 |
| COCCCNC(=O)c1cccc2oc(N(C)C)nc12 | −31.049 |
| CCOc1ccc(C(=O)NCC2CCOCC2)cc1O | −30.8469 |

Recorded Caspase-3 induction, Normalized to Formula (III) (%) for CN(C)c1nc2cccc(C(=O)NC3CCCC3)c2o1 with B16 melanoma cells, please?
−47.699

Also COCCCNC(=O)c1ccc2nc(C3CC3)oc2c1 ?
−4.759

Another compound to check: Cc1cc(O)c(O)cc1C(=O)NC1CCCC1
−66.5183

Input O=C(NCc1ccccc1)c1ccc2nc(C3CCCO3)oc2c1 (centres unmarked)
−34.6335

Request: O=C(NCc1ccccc1)c1ccc2nc(-c3cc(Cl)cc(Cl)c3)oc2c1
−36.0528

And for COCCCNC(=O)c1ccc2nc(C3CCCO3)oc2c1 (centres unmarked) ?
−69.878

Same question for O=C(NC1CCCC1)c1cc2c(cc1O)OCO2 please.
−61.6444

Check COc1cc(C(=O)NCC2CCCC2)ccc1OCCC(C)C too.
−50.1028

Consider next the compound COCCCNC(=O)c1cc(OC)c(O)c(OC)c1 in the same way.
−23.5938

And what about the compound Cc1nc2c(C(=O)NC3CCCC3)cccc2o1 ?
−30.2879

Another compound to look at: Cc1cc(O)c(O)cc1C(=O)NCc1ccccc1 [N-benzyl-4,5-dihydroxy-2-methylbenzamide]
−43.6184

Same thing, different compound: COc1cc(Br)c(C(=O)N2CCCC2)cc1OC
18.4794

Follow-up entry: COc1cc(C(=O)NCC2CCOCC2)ccc1O
−76.3077

COc1cc(C(=O)NCC2CCOCC2)ccc1OC(C)C , same question.
−66.2788

Next entry: O=C(NCc1ccccc1)c1ccc2nc(C3CCCCC3)oc2c1
−61.2418

One more compound: O=C(NC1CCCC1)c1ccc2nc(S)oc2c1
−81.3264

---

Study system: MBP-Sb9 (Homo sapiens, UniProt P50453)
Sequence (P50453 1-376): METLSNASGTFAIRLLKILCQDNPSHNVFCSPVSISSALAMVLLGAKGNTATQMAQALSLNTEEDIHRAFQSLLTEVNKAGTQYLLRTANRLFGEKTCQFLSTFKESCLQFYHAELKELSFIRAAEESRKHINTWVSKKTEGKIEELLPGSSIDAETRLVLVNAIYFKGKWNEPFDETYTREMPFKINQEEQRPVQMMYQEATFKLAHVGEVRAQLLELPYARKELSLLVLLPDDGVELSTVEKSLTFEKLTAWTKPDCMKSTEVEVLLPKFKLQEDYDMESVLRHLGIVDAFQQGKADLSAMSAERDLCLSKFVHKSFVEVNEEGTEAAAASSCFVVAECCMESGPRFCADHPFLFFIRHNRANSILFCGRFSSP
Each entry below carries its recorded Kd.
Enter your answer as a number in µM; do not include the unit.

| Compound | Study system | Attribute measured | Assay value |
| --- | --- | --- | --- |
| O=C(O)c1ccc2ncoc2c1 [Formula (III), 1,3-benzoxazole-6-carboxylic acid] | MBP-Sb9 (Homo sapiens, UniProt P50453) | Kd | 273 |

Recorded Kd for O=C(O)c1ccc(O)c(O)c1 [3,4-dihydroxybenzoic acid, reference compound] , please?
88
